Measurement target: human P2X7 receptor (Homo sapiens (Human), UniProt Q99572, R270H)
Sequence (Q99572 whole entry R270H): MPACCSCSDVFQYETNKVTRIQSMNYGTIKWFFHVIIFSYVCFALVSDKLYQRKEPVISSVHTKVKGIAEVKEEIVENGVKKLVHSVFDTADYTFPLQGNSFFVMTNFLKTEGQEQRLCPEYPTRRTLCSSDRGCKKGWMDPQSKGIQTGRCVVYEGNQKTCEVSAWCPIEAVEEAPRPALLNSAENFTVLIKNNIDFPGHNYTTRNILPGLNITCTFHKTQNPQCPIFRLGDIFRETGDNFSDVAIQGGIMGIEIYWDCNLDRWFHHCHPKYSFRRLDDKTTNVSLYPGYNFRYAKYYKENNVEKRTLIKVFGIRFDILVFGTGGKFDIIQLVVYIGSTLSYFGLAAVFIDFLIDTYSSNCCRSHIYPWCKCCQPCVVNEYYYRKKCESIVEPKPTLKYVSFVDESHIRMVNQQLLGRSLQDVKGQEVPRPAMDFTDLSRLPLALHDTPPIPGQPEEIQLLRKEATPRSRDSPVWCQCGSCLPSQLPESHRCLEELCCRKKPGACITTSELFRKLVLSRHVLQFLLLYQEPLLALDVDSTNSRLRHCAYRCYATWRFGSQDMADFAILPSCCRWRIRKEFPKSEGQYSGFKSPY
Assay notes: Evaluation of a human P2X7 receptor inhibitory activity (Yo-Pro uptake, BzATP stimulation, FLIPR TETRA)
Format: cell-based
Condition summary: 1321N1 cells stably expressing human P2X7 receptor, Yo-Pro fluorescence, class symbols
Description: Evaluation of a human P2X7 receptor inhibitory activity Stably expressing cell line (1321N1 cell transfected with the human P2X7 receptor gene (GenBank accession number NM_002562.5 including T606C and G952A SNP)) was used. […] Measurement of fluorescence intensity by FLIPR TETRA was started. […] Changing values of fluorescence intensity by the compound of the present invention were calculated by difference between maximum and minimum fluorescence intensity for 20 minutes. […]
Readout label: IC50

Prompt: Give the reported IC50 for this compound. Cc1ccc(OC[C@H]2C[C@H](O)C2)cc1NC1=NC(=O)N(C)C2=NCC(c3cc(F)c(F)c(F)c3)N12 (stereo partly shown)
Response: 10 to 100 nM

Prompt: Tell us which IC50 value is on record for Cc1nc2cc(C)c(Nc3nc(=O)c(F)c4n3C(c3ccc(F)cc3F)CC4)cc2s1 (stereo not shown)
Response: < 10 nM

Prompt: # return recorded IC50 for entry COc1cnc(C)c(/N=c2\[nH]c(=O)c(F)c3n2C(c2ccc(F)cc2)CC3)c1 (stereo not shown)
Response: 10 to 100 nM

Prompt: State its IC50: COc1ccc(Nc2nc(=O)c(-c3ccccc3)c3n2C(c2cc(F)cc(F)c2)CC3)c(C)n1 (stereo not shown)
Response: 10 to 100 nM

----------
Measurement target: human P2X7 receptor (Homo sapiens (Human), UniProt Q99572, R270H)
Assay notes: Evaluation of a human P2X7 receptor inhibitory activity (Yo-Pro uptake, BzATP stimulation, FLIPR TETRA)
Format: cell-based
Condition summary: 1321N1 cells stably expressing human P2X7 receptor, Yo-Pro fluorescence, class symbols
Readout label: IC50

Prompt: Indicate its recorded IC50; the compound in question is Cc1ccc(OCC#N)cc1NC1=NC(=O)N(C)C2=NCC(c3cc(F)c(F)c(F)c3)N12 (stereo not shown) [Compound I-0200]
Response: 10 to 100 nM

Prompt: Please give measured IC50 of the following entry: COc1cc(C)c(Nc2nc(=O)cc3n2C(c2ccccc2)CC3)cc1F (stereo not shown) [Compound I-0024]
Response: 10 to 100 nM

Prompt: Output IC50 of COc1ccc(NC2=NC(=O)N(C)C3=NCC(c4ccc(F)cc4)N23)c(C)n1 (stereo not shown) [Compound I-0119]
Response: 10 to 100 nM

Prompt: Note IC50 for the compound shown: Cc1ccc(CC(F)(F)CO)cc1NC1=NC(=O)N(C)C2=NCC(c3cc(F)c(F)c(F)c3)N12 (stereo not shown) [Compound I-0184]
Response: 10 to 100 nM

Prompt: Give me measured IC50, please, for this compound: Cc1[nH]c(=O)c(F)cc1Nc1nc(=O)cc2n1C(c1ccc(F)cc1F)CC2 (stereo not shown) [Compound I-0088]
Response: 500 to 1000 nM

Prompt: Name the recorded IC50 of the compound listed here: COc1cc(C)c(Nc2nc(=O)cc3n2C(c2ccccc2)CC3)cc1Cl (stereo not shown) [Compound I-0028]
Response: < 10 nM

Prompt: Given the compound COc1ccc(NC2=NC(=O)N(C)C3=NCC(c4cc(F)c(F)c(F)c4)N23)c(C)c1F (stereo not shown) [Compound I-0147] , write its reported IC50.
Response: 10 to 100 nM

Prompt: Give recorded IC50. Cc1ccccc1Nc1nc(=O)cc2n1C(c1ccccc1)CC2 (stereo not shown) [Compound I-0015]
Response: 10 to 100 nM

Prompt: Tell me measured IC50 for COc1ccc(Nc2nc(=O)c(F)c3n2C(c2cc(F)cc(F)c2)CC3)c(C)c1F (stereo not shown) [Compound I-0108] please.
Response: 10 to 100 nM

Prompt: Given the compound COc1ccc(Nc2nc(=O)c(F)c3n2C(c2ccc(F)cc2F)CC3)c(C)c1 (stereo not shown) [Compound I-0064] , write its reported IC50.
Response: 10 to 100 nM

Prompt: Specify measured IC50 for COc1ccc(Nc2nc(=O)cc3n2C(c2ccccc2)CN3C)c(C)c1 (stereo not shown) [Compound I-0110] .
Response: < 10 nM

Prompt: For COc1cc(C)c(Nc2nc(=O)nc3n2C(c2cc(F)c(F)c(F)c2)CN3)cc1OC (stereo not shown) [Compound I-0153] , write its IC50.
Response: 10 to 100 nM

Prompt: Please look at this compound and report its IC50: COc1ccc(C)c(Nc2nc(=O)cc3n2C(c2ccccc2)CN3C)c1 (stereo not shown) [Compound I-0105]
Response: 10 to 100 nM

Prompt: For the compound CCc1ccc(CO)cc1NC1=NC(=O)N(C)C2=NCC(Cc3ccccc3)N12 (stereo not shown) [Compound I-0183] , report IC50.
Response: 100 to 500 nM

Prompt: Respond only with IC50 recorded for COc1cc(C)c(Nc2nc(=O)cc3n2C(c2ccccc2)CC3)cn1 (stereo not shown) [Compound I-0030]
Response: 100 to 500 nM

Prompt: Retrieve IC50 measured for COc1ccc(C)c(Nc2nc(=O)n(C)c3ncn(Cc4ccccc4)c23)c1 [Compound I-0173] and print it.
Response: 500 to 1000 nM

Prompt: Entry Cc1cc2c(cc1/N=c1\[nH]c(=O)c(F)c3n1C(c1ccc(F)cc1F)CC3)COC2 (stereo not shown) [Compound I-0073] needs its IC50 filled in; supply it.
Response: 10 to 100 nM

Prompt: For COc1ccc(Nc2nc(=O)cc3n2C(c2cccc(Cl)c2)CC3)c(C)c1 (stereo not shown) [Compound I-0050] , write its IC50.
Response: < 10 nM

Prompt: State its IC50: COc1cc(C)c(Nc2nc(=O)cc3n2C(c2cccc(F)c2)CC3)cc1OC (stereo not shown) [Compound I-0018]
Response: 10 to 100 nM
